Target: T1, human IL-23 (human, UniProt Q9NPF7 20-189; P29460 23-328)
T1 construct: also called hIL-23; human recombinant IL-23
T1 sequence (looked up) 1: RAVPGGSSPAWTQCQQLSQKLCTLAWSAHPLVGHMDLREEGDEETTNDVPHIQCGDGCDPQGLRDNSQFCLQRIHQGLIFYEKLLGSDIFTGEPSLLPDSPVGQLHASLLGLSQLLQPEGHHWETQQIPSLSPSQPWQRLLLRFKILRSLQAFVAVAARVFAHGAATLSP
T1 sequence (looked up) 2: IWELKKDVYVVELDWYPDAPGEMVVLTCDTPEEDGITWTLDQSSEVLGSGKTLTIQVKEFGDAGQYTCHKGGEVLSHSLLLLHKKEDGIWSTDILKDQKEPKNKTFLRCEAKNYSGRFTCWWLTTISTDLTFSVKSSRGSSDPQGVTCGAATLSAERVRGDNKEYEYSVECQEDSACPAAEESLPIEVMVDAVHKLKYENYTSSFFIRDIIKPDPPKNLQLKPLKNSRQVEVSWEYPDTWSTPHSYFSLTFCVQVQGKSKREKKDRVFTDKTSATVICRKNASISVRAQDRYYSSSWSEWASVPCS
Assay: SPR, Adnectin captured by anti-His mAb, IL-23 injected
Field: kon. Provide a value for each of the binders that follow.
One number for each entry, in M⁻¹ s⁻¹.

Some binders with recorded kon:
BINDER | READING
1486C04 (designed binder, captured by anti-His mAb) MGVSDVPRDLEVVAATPTSLLISWGHYPMHVRYYRITYGETGGNSPVQEFTVPPHRYTATISGLKPGVDYTITVYAVTYYNEADYSQIPISINYRTEIDKPSQHHHHHH | 112000
1490C07 (designed binder, captured by anti-His mAb) MGVSDVPRDLEVVAATPTSLLISWGHYPLHVRYYRITYGETGGNSPVQEFTVPSNRYTATISGLKPGVDYTITVYAVTYYNEADYSQIPISINYRTEIDKPSQHHHHHH | 95600
1486G03 (designed binder, captured by anti-His mAb) MGVSDVPRDLEVVAATPTSLLISWGHYPMHVRYYRITYGETGGNSPVQEFTVPSRYYTATISGLKPGVDYTITVYAVTYYNEADYSQIPISINYRTEIDKPSQHHHHHH | 86200
1490H05 (designed binder, captured by anti-His mAb) MGVSDVPRDLEVVAATPTSLLISWGHYPLHVRYYRITYGETGGNSPVQEFTVPMRQHTATISGLKPGVDYTITVYAVTYYAQENYKEIPISINYRTEIDKPSQHHHHHH | 156000
1572C09 (designed binder, captured by anti-His mAb) MGVSDVPRDLEVVAATPTSLLISWGHYPMHIRYYRITYGETGGNSPVQEFTVPTPKHTATISGLKPGVDYTITVYAVTYYNEADYSQIPISINYRTEIDKPSQHHHHHH | 60700

Below are 6 binders. Give each one its kon.
1. 1486D05 (designed binder, captured by anti-His mAb) MGVSDVPRDLEVVAATPTSLLISWGHYPLHVRYYRITYGETGGNSPVQEFTVPHQRYTATISGLKPGVDYTITVYAVTYYNEADYSQIPISINYRTEIDKPSQHHHHHH
2. 1486B05 (designed binder, captured by anti-His mAb) MGVSDVPRDLEVVAATPTSLLISWGHYPMHVRYYRITYGETGGNSPVQEFTVPSRIYTATISGLKPGVDYTITVYAVTYYNEADYSQIPISINYRTEIDKPSQHHHHHH
3. 1572H08 (designed binder, captured by anti-His mAb) MGVSDVPRDLEVVAATPTSLLISWGHYPLHVRYYRITYGETGGNSPVQEFTVPSRKYTATISGLKPGVDYTITVYAVTYYNEADYSQIPISINYRTEIDKPSQHHHHHH
4. 1550C05 (designed binder, captured by anti-His mAb) MGVSDVPRDLEVVAATPTSLLISWGHYPMHVRYYRITYGETGGNSPVQEFTVPPRRYTATISGLKPGVDYTITVYAVTYYNEADYSQIPISINYRTEIDKPSQHHHHHH
5. 1550 E06 (designed binder, captured by anti-His mAb) MGVSDVPRDLEVVAATPTSLLISWGHYPMHVRYYRITYGETGGNSPVQEFTVPPPRHTATISGLKPGVDYTITVYAVTYYAQENYKEIPISINYRTEIDKPSQHHHHHH
6. 1572D04 (designed binder, captured by anti-His mAb) MGVSDVPRDLEVVAATPTSLLISWGHYPMHVRYYRITYGETGGNSPVQEFTVPPRRYTATISGLKPGVDYTITVYAVTYYEQPIYATIPISINYRTEIDKPSQHHHHHH

-- reply
1. 120000
2. 134000
3. 57300
4. 65900
5. 55400
6. 103000

Below are 4 binders. Give each one its kon.
1. 1572G06 (designed binder, captured by anti-His mAb) MGVSDVPRDLEVVAATPTSLLISWGHYPLHVRYYRITYGETGGNSPVQEFTVPRYKYTATISGLKPGVDYTITVYAVTYYAQENYKEIPISINYRTEIDKPSQHHHHHH
2. 1490G02 (designed binder, captured by anti-His mAb) MGVSDVPRDLEVVAATPTSLLISWGHYPMHVRYYRITYGETGGNSPVQEFTVPPRYHTATISGLKPGVDYTITVYAVTYYMEEKYAVIPISINYRTEIDKPSQHHHHHH
3. 1571G06 (designed binder, captured by anti-His mAb) MGVSDVPRDLEVVAATPTSLLISWGHYPLHLRYYRITYGETGGNSPVQEFTVPRTKYTATISGLKPGVDYTITVYAVTYYKEADYSQIPISINYRTEIDKPSQHHHHHH
4. 1490A07 (designed binder, captured by anti-His mAb) MGVSDVPRDLEVVAATPTSLLISWGHYPLHIRYYRITYGETGGNSPVQEFTVPHAKYTATISGLKPGVDYTITVYAVTYYAQENYKEIPISINYRTEIDKPSQHHHHHH

-- reply
1: 105000; 2: 197000; 3: 131000; 4: 163000

-- ask Recorded kon for 1572H05 (designed binder, captured by anti-His mAb) MGVSDVPRDLEVVAATPTSLLISWGHYPLHIRYYRITYGETGGNSPVQEFTVPRSKYTATISGLKPGVDYTITVYAVTYYEQVEYREIPISINYRTEIDKPSQHHHHHH , please?
-- reply 375000

meta.source: patent US20130012436A1
